- TEST TARGET: T1, YU-2 gp120 (HIV-1 (strain YU-2), UniProt P35961 32-498)
- T1 construct: domain: gp120; also called gp120WT; intact YU-2 gp120
- ASSAY REMARKS: SPR, IgG over immobilised YU-2 gp120, 1:1 fit, apparent constant
MEASURED PARAMETER: Ka
Units required after the number.

Could you please provide reported Ka for 10-1341 (antibody, V domains shown) VH: QVQLQESGPGLVKPSETLSVTCSVSGDSMNNYYWTWIRQSPGKGLEWIGYISDRESATYNPSLNSRVVISRDTSTNQLSLKLNSVTPADTAVYYCATARRGQRIYGVVSFGEFFYYYSMDVWGRGTTVTVSS VL: SYVRPLSVALGETARISCGRQALGSRAVQWYQHRPGQAPILLIYNNQDRPSGIPERFSGTPDINFGTRATLTISGVEAGDEADYYCHMWDSRSGFSWSFGGATRLTVL ? Thanks! 1.2e+08 M⁻¹
